From: patent US20230000870A1

measured on: CDK7/Cyclin H/MAT1 complex (Homo sapiens)
method description: CDK7 kinase inhibition assay (Caliper/LabChip EZ Reader)
reported conditions: CDK7/Cyclin H/MAT1 6 nM, ATP 2 mM, 35 min at 27° C.
readout label: IC50

# annotated cases, reported IC50 shown
> print(dat)
                                   compound          result
1  CC1CCNCC1Nc1ncc(C(F)(F)F)c(-c2c[nH]c3ccccc23)n1 (stereo not shown) [Compound 285]  200 to 5000 nM
2  N#Cc1ccc2c(-c3nc(NC4CCCNC4)ncc3C(F)(F)F)c[nH]c2n1 (stereo not shown)         < 20 nM
3  CC1(C)CCC(Nc2ncc(C(F)(F)F)c(-c3c[nH]c4ccccc34)n2)CN1 (stereo not shown)         < 20 nM
4  FC(F)(F)c1cnc(NC2CNCC(c3nnc4ccccn34)C2)nc1-c1c[nH]c2ccccc12 (stereo not shown) [Compound 266]    20 to 200 nM

Challenge: Form field: reported IC50 of `Cc1nn(C)cc1-c1ccc2c(-c3nc(N[C@H]4CCCNC4)ncc3C(F)(F)F)c[nH]c2c1`
Response given: < 20 nM

Challenge: Ok, now CC1(C)CNCC(Nc2ncc(Cl)c(-c3c[nH]c4c(S(C)(=O)=O)c(C#N)ccc34)n2)C1 (stereo not shown)
Response given: < 20 nM

Challenge: Ok, now `CCc1cnc(N[C@H]2CCCNC2)nc1-c1c[nH]c2c(S(=O)(=O)O)cccc12`
Response given: 20 to 200 nM

Challenge: Ok, now `CCCc1cnc(N[C@H]2CCCNC2)nc1-c1c[nH]c2c(S(C)(=O)=O)c(C#N)ccc12`
Response given: 20 to 200 nM

Challenge: Ok, now CC(C)c1cnc(NC2CCCNC2)nc1-c1c[nH]c2ccccc12 (stereo not shown)
Response given: 20 to 200 nM

Challenge: Ok, now Cc1nc(-c2ccc3c(-c4nc(NC5CCCNC5)ncc4C(F)(F)F)c[nH]c3c2)nn1C (stereo not shown)
Response given: < 20 nM

---

measured on: CDK7/Cyclin H/MAT1 complex (Homo sapiens, UniProt P50613)
Sequence (P50613 whole entry): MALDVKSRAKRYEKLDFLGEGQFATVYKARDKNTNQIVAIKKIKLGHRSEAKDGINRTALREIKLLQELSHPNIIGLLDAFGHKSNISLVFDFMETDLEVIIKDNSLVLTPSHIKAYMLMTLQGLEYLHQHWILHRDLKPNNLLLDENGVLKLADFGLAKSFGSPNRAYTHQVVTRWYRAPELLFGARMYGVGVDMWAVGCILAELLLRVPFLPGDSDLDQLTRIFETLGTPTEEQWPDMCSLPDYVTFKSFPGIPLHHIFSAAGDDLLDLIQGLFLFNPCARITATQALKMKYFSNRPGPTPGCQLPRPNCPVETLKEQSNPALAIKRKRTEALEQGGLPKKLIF
Sequence (P51946 whole entry partner): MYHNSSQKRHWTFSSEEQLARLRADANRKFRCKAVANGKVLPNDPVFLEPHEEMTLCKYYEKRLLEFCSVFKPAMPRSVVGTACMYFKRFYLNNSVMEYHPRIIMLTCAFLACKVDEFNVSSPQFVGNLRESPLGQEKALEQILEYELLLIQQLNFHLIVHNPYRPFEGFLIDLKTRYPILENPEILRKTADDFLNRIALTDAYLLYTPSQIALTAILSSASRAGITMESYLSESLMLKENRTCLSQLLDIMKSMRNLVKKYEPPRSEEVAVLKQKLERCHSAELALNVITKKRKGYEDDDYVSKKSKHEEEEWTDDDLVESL
Sequence (P51948 whole entry partner): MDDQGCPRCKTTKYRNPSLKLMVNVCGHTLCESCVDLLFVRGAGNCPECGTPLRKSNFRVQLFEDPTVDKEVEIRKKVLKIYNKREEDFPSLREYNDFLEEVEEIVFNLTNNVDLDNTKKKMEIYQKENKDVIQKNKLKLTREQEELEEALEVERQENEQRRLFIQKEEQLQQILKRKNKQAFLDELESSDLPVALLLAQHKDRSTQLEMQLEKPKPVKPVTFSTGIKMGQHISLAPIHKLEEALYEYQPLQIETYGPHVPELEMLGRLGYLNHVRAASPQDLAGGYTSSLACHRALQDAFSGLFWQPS
method description: CDK7 kinase inhibition assay (Caliper/LabChip EZ Reader)
Type: biochemical
reported conditions: CDK7/Cyclin H/MAT1 6 nM, ATP 2 mM, 35 min at 27° C.
pIC50: −log10 of the molar value.
Reported pIC50 values for a set of molecules

# annotated cases, reported pIC50 shown
> print(dat)
                                   molecule  readout.label  result
1  CN1CCN(c2cccc3c(-c4nc(NC5CCCNC5)ncc4C(F)(F)F)c[nH]c23)C1=O (stereo not drawn) [Compound 176]          pIC50  > 7.70
2  FC(F)(F)c1cnc(NC2CCCNC2)nc1-c1c[nH]c2cc(-c3ncc[nH]3)ccc12 (stereo not drawn) [Compound 202]          pIC50  > 7.70

Challenge: Form field: reported pIC50 of Cc1cccc2c(-c3nc(NC4CCCNC4)ncc3C(F)(F)F)c[nH]c12 (stereo not drawn) [Compound 124]
Response given: > 7.70

---

measured on: CDK12 (aa686-1082)/Cyclin K complex (Homo sapiens)
Construct: CDK12 (aa686-1082)/Cyclin K complex
Sequence (Q9NYV4 686-1082): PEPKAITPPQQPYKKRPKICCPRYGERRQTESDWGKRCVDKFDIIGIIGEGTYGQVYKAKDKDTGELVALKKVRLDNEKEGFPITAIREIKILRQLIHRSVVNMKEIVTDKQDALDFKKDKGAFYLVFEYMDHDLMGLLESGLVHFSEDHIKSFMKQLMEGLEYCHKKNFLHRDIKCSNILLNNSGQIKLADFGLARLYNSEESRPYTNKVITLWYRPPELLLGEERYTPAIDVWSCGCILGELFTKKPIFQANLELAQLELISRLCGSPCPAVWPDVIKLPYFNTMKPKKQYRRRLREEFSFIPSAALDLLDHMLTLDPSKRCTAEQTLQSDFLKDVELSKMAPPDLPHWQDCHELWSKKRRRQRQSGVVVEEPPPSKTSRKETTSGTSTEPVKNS
Sequence (O75909 whole entry partner, the tested form may be a part): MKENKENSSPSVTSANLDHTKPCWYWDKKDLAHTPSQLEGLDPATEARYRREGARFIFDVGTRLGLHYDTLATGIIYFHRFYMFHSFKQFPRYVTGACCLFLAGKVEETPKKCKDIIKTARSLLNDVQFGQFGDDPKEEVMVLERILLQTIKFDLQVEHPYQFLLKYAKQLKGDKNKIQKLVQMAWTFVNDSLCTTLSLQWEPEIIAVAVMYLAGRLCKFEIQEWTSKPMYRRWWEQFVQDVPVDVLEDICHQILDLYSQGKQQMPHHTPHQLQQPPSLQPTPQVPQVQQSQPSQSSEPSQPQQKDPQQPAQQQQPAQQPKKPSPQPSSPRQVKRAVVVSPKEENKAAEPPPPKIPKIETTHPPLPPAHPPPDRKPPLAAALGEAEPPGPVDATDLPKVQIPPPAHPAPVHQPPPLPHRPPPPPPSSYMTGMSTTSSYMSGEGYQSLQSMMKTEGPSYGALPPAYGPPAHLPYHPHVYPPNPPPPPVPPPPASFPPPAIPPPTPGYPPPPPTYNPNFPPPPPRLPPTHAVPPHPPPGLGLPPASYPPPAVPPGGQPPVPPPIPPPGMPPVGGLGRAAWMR
method description: CDK12 kinase inhibition assay (Caliper/LabChip EZ Reader)
reported conditions: CDK12 (aa686-1082)/Cyclin K 50 nM, ATP 2 mM, 3 hr at 27° C.
pIC50: −log10 of the molar value.
readout label: pIC50

> print(dat)
                                   compound  readout.label        result
1  CCC1(Nc2ncc(Cl)c(-c3c[nH]c4ccccc34)n2)CCCNC1 (centres unmarked) [Compound 128]          pIC50        ≤ 5.30
2  Fc1cnc2[nH]cc(-c3nc(NC4CCCNC4)ncc3C(F)(F)F)c2c1 (centres unmarked) [Compound 166]          pIC50  5.30 to 6.70
3  CCc1cnc(NC2CCCNC2)nc1-c1c[nH]c2ccccc12 (centres unmarked) [Compound 105]          pIC50  5.30 to 6.70
4  FC(F)(F)Cc1cnc(N[C@H]2CCCNC2)nc1-c1c[nH]c2ccccc12 [Compound 158]          pIC50  5.30 to 6.70
5  Cc1cnc(NC2CCCNC2)nc1-c1c[nH]c2ccccc12 (centres unmarked) [Compound 119]          pIC50  5.30 to 6.70

Challenge: Request - read-out pIC50 | tested on CDK12 (aa686-1082)/Cyclin K complex (Homo sapiens) | compound CC(C)C1CC[C@H](Nc2ncc(C(F)(F)F)c(-c3c[nH]c4ccccc34)n2)CN1 (some centres unmarked) [Compound 257]
Response given: ≤ 5.30

Challenge: Ok, now Cc1nn(C)cc1-c1cccc2c(-c3nc(NC4CCCNC4)ncc3C(F)(F)F)c[nH]c12 (centres unmarked) [Compound 171]
Response given: 5.30 to 6.70

Challenge: Ok, now N#Cc1cc(-c2ccc3c(-c4nc(NC5CCCNC5)ncc4C(F)(F)F)c[nH]c3c2)ccc1O (centres unmarked) [Compound 315]
Response given: 5.30 to 6.70

Challenge: Ok, now CCN1CCCC(Nc2ncc(C(F)(F)F)c(-c3c[nH]c4cc(S(C)(=O)=O)ccc34)n2)C1 (centres unmarked) [Compound 298]
Response given: 5.30 to 6.70

Challenge: Ok, now CNC(=O)C1CNCC(Nc2ncc(C(F)(F)F)c(-c3c[nH]c4ccccc34)n2)C1 (centres unmarked) [Compound 252]
Response given: ≤ 5.30

Challenge: Ok, now FC(F)(F)c1cnc(N[C@H]2CCCNC2)nc1-c1c[nH]c2cc(-c3ccncc3)ccc12 [Compound 224]
Response given: 5.30 to 6.70

Challenge: Ok, now CCCc1cnc(N[C@H]2CCCNC2)nc1-c1c[nH]c2c(S(C)(=O)=O)c(C#N)ccc12 [Compound 367]
Response given: ≤ 5.30

Challenge: Ok, now FC(F)(F)c1cnc(NC2CNCc3ccccc32)nc1-c1c[nH]c2ccccc12 (centres unmarked) [Compound 216]
Response given: ≤ 5.30

Challenge: Ok, now CC(C)n1cc(-c2nc(NC3CCCNC3)ncc2Cl)c2ccccc21 (centres unmarked) [Compound 127]
Response given: ≤ 5.30
